Reference for the values: patent US10611750B2

# TESTED TARGET: BRD4 Bromodomain 1 (BRD4 BD1) (Homo sapiens, UniProt O60885)
# Construct: 44-168 and BRD4 BD2
# ASSAY METHOD TEXT: AlphaScreen binding assay, BRD4 BD1
# SETUP CONDITIONS: His-tagged BRD4 BD1 50 nM, biotinylated H4 (1-21) K5/8/12/16 tetra-acetylated peptide 50 nM, compounds listed under IC50 range headings
# Procedure: The binding of Example compounds to BRD4 Bromodomain 1 and BRD4 Bromodomain 2 was assessed using 384-well AlphaScreen assay technology. His-epitope tagged BRD4 BD144-168 and BRD4 BD2333-460 were cloned, expressed, and purified to homogeneity. BRD4 BD1 and BRD4 BD2 binding and inhibition was assessed by monitoring the engagement of biotinylated Histone H4 (1-21) K5/8/12/16 tetra-acetylated peptide with the targets using the AlphaScreen technology (PerkinElmer). […]
pIC50: −log10 of the molar value.
Recorded pIC50 values for a group of compounds are listed next.

Solved cases below.
COMPOUND: CCCOc1c(C2CCN(C(=O)OC)CC2)ccc2c1CC[C@H](C)N2C(C)=O
TESTED TARGET: BRD4 Bromodomain 1 (BRD4 BD1) (Homo sapiens, UniProt O60885)
pIC50: ≤ 5.00
--
COMPOUND: CC(=O)N1c2ccc(-c3cnn(CCS(C)(=O)=O)c3)c(OCC3CCOCC3)c2CC[C@@H]1C
TESTED TARGET: BRD4 Bromodomain 1 (BRD4 BD1) (Homo sapiens, UniProt O60885)
pIC50: 6.00 to 7.00
--
COMPOUND: COC(=O)N1c2ccc(-c3cnn(C4CCN(C)CC4OC)c3)c(Oc3ccc(F)cc3)c2CC[C@@H]1C (stereo partly drawn)
TESTED TARGET: BRD4 Bromodomain 1 (BRD4 BD1) (Homo sapiens, UniProt O60885)
pIC50: 6.00 to 7.00
--
COMPOUND: COC(=O)N1c2ccc(-c3cnn(CCS(C)(=O)=O)c3)c(Oc3cnccn3)c2CC[C@@H]1C
TESTED TARGET: BRD4 Bromodomain 1 (BRD4 BD1) (Homo sapiens, UniProt O60885)
pIC50: 5.00 to 6.00
--
COMPOUND: COC(=O)N1c2ccc(-c3cnn(C4CC4)c3)c(OC3CN(C(=O)OC(C)(C)C)C3)c2CC[C@@H]1C
TESTED TARGET: BRD4 Bromodomain 1 (BRD4 BD1) (Homo sapiens, UniProt O60885)
pIC50: ≤ 5.00

What measured pIC50 goes with Cc1nnc(-c2ccc3c(c2Oc2ccccc2)CC[C@H](C)N3C(=O)C2CC2)s1 ?
5.00 to 6.00

What measured pIC50 goes with COC(=O)N1c2ccc(-c3cnn(C4CC4)c3)c(Oc3ccc(C(N)=O)cc3)c2CC[C@@H]1C ?
6.00 to 7.00

What measured pIC50 goes with C[C@H]1CCc2c(ccc(-c3cn(C)nn3)c2Oc2ccccc2)N1C(=O)C1CC1 ?
6.00 to 7.00

What measured pIC50 goes with COC(=O)N1c2ccc(-c3cnn(CCO)c3)c(OCC(=O)N3CCCC3)c2CC[C@@H]1C ?
5.00 to 6.00

What measured pIC50 goes with COC(=O)N1c2ccc(-c3cnn(CCS(C)(=O)=O)c3)c(Oc3ncccc3C#N)c2CC[C@@H]1C ?
5.00 to 6.00

What measured pIC50 goes with CC(=O)N1c2ccc(-c3cnn(CC(C)(C)O)c3)c(OCC3CCCC3)c2CC[C@@H]1C ?
6.00 to 7.00

What measured pIC50 goes with CC=Cn1c(Oc2c(-c3cnn(C4CC4)c3)ccc3c2CC[C@H](C)N3C(C)=O)nc2ccccc21 (single isomer, unassigned) ?
5.00 to 6.00

What measured pIC50 goes with CCCOc1c(-c2cnn(CC(C)(C)O)c2)ccc2c1CC[C@H](C)N2C(=O)OC ?
5.00 to 6.00

What measured pIC50 goes with COC(=O)N1c2ccc(-c3cnn(CCO)c3)c(OCC3CCCC3)c2CC[C@@H]1C ?
6.00 to 7.00

What measured pIC50 goes with C[C@H]1CCc2c(ccc(-c3cnn(C4CCNCC4)c3)c2Oc2ccc(Cl)cc2)N1C(=O)C1CC1 ?
6.00 to 7.00

What measured pIC50 goes with C[C@H]1CCc2c(ccc(-c3cnn(C4CNC4)c3)c2Oc2ccccc2)N1C(=O)C1CC1 ?
6.00 to 7.00

What measured pIC50 goes with COC(=O)N1c2ccc(-c3cnn(C4CCNCC4)c3)c(Oc3ccc(C(N)=O)cc3)c2CC[C@@H]1C ?
6.00 to 7.00

What measured pIC50 goes with CC(=O)N1c2ccc(-c3cnn(C4CC4)c3)c(OCc3cncs3)c2CC[C@@H]1C ?
5.00 to 6.00

What measured pIC50 goes with C[C@H]1CCc2c(ccc(-n3cc(N4CCNCC4)cn3)c2Oc2ccccc2)N1C(=O)C1CC1 ?
5.00 to 6.00

What measured pIC50 goes with COC(=O)N1c2ccc(-c3cnn(C4CCNCC4)c3)c(Oc3ccc(OC)cc3)c2CC[C@@H]1C ?
6.00 to 7.00

What measured pIC50 goes with COC(=O)N1c2ccc(-c3cnn(C4CCNCC4)c3)c(OC[C@H]3CCC(=O)N3)c2CC[C@@H]1C ?
5.00 to 6.00

* * *

Recorded pIC50 values for a group of compounds are listed next.
# TESTED TARGET: BRD4 Bromodomain 1 (BRD4 BD1) (Homo sapiens)
# Construct: 44-168 and BRD4 BD2
# ASSAY METHOD TEXT: AlphaScreen binding assay, BRD4 BD1
# SETUP CONDITIONS: His-tagged BRD4 BD1 50 nM, biotinylated H4 (1-21) K5/8/12/16 tetra-acetylated peptide 50 nM, compounds listed under IC50 range headings
pIC50: −log10 of the molar value.

Solved cases below.
COMPOUND: C[C@H]1CCc2c(ccc(-c3cnn(C4CCNCC4)c3)c2Oc2ccc(C#N)cc2)N1C(=O)C1CC1
pIC50: 6.00 to 7.00
//
COMPOUND: C[C@H]1CCc2c(ccc(-c3cnn(C4CCNCC4)c3)c2Oc2cccc(Cl)c2)N1C(=O)C1CC1
pIC50: 6.00 to 7.00
//
COMPOUND: C[C@H]1CCc2c(ccc(-c3ccnn3C3CCNCC3)c2Oc2ccccc2)N1C(=O)C1CC1
pIC50: ≤ 5.00
//
COMPOUND: COC(=O)N1c2ccc(-c3cnn(CCO)c3)c(Oc3ncccc3C#N)c2CC[C@@H]1C
pIC50: 5.00 to 6.00
//
COMPOUND: COc1c(-c2cnn(C3CC3)c2)ccc2c1CC[C@H](C)N2C(C)=O
pIC50: 5.00 to 6.00

# query: pIC50 | item CC(=O)N1c2ccc(-c3cnn(C4CCNCC4)c3)c(Oc3ccc(Cl)cc3)c2CC[C@@H]1C | system: BRD4 Bromodomain 1 (BRD4 BD1) (Homo sapiens)
6.00 to 7.00

# query: pIC50 | item COC(=O)N1c2ccc(-c3cnn(C4CC5CNCC5C4)c3)c(Oc3ccc(F)cc3)c2CC[C@@H]1C (stereo partly shown) | system: BRD4 Bromodomain 1 (BRD4 BD1) (Homo sapiens)
6.00 to 7.00

# query: pIC50 | item C[C@H]1CCc2c(ccc(-c3cnn4c3NCC4)c2OC2CCC2)N1C(=O)C1CC1 | system: BRD4 Bromodomain 1 (BRD4 BD1) (Homo sapiens)
6.00 to 7.00

# query: pIC50 | item CC(=O)N1c2ccc(-c3cnn(CCS(C)(=O)=O)c3)c(OCC(=O)N(C)C)c2CC[C@@H]1C | system: BRD4 Bromodomain 1 (BRD4 BD1) (Homo sapiens)
5.00 to 6.00

# query: pIC50 | item CCCOc1c(-c2ccc3c(c2)CCN3S(C)(=O)=O)ccc2c1CC[C@H](C)N2C(C)=O | system: BRD4 Bromodomain 1 (BRD4 BD1) (Homo sapiens)
5.00 to 6.00

* * *

# TESTED TARGET: BRD4 Bromodomain 1 (BRD4 BD1) (Homo sapiens, UniProt O60885)
# Construct: 44-168 and BRD4 BD2
# ASSAY METHOD TEXT: AlphaScreen binding assay, BRD4 BD1
# SETUP CONDITIONS: His-tagged BRD4 BD1 50 nM, biotinylated H4 (1-21) K5/8/12/16 tetra-acetylated peptide 50 nM, compounds listed under IC50 range headings
pIC50: −log10 of the molar value.
OUTCOME MEASURE: pIC50

Solved cases below.
COMPOUND: COC(=O)N1c2ccc(-c3cnn(C4CCNCC4OC)c3)c(Oc3ccc(F)cc3)c2CC[C@@H]1C (some centres unmarked)
pIC50: 6.00 to 7.00
//
COMPOUND: C[C@H]1CCc2c(ccc(-c3cnn(C4CCNCC4)c3)c2Oc2cccc(F)c2F)N1C(=O)C1CC1
pIC50: 6.00 to 7.00
//
COMPOUND: CC(=O)N1c2ccc(-c3cnn(C4CC4)c3)c(OC3COC3)c2CC[C@@H]1C
pIC50: 5.00 to 6.00

What measured pIC50 goes with CCNC(=O)COc1c(-c2cnn(C3CC3)c2)ccc2c1CC[C@H](C)N2C(C)=O ?
5.00 to 6.00
